Provide the reported growth of each item.
# System: CAKI-1 renal
# EXPERIMENTAL_DETAILS: NCI-60 one-dose screen, 48 h (100 = growth as untreated, 0 = no growth, -100 = all killed)
# EXPERIMENTAL_SETUP: 10 µM unless noted
The panel holds about 83,000 compounds, 20% with a hit somewhere; the sample as a whole holds those more often.
I only need the number, in %, no unit after it.

[ask] Quick one: growth for `CSC1=Nc2c(c(C)c(-c3ccccc3)n2CCCC(=O)O)C2=NC(=O)C[C@H](C)N12` ?
[reply] 103

[ask] Quick one: growth for `C=C1C(=O)O[C@H]2[C@H]1CC/C(COC(=O)c1ccc(C(=O)O)s1)=C\CC[C@@]1(C)O[C@@H]21` ?
[reply] 8.39

[ask] Quick one: growth for `O=C(c1c[nH]c2ccccc12)c1n[nH]c(=S)n1-c1cccc(Br)c1` ?
[reply] 77.2

[ask] Quick one: growth for `COC(=O)/C=C1/SC(=Nc2ccc([N+](=O)[O-])cc2)N(CCc2c[nH]c3ccc(O)cc23)C1=O` ?
[reply] 71.4

[ask] Quick one: growth for `Cc1ccc(N2C(=O)CCC2=O)cc1` ?
[reply] 96.9

[ask] Quick one: growth for `NS(=O)(=O)c1ccc(-c2cc(-c3nnc(SCC(=O)Nc4ccc(C(=O)/C=C/c5ccc(Cl)cc5)cc4)n3-c3ccccc3)c3ccccc3n2)cc1` ?
[reply] 77.1

[ask] Quick one: growth for `Cn1cc(-c2nn3cc(-c4cccs4)nc3s2)c2cc(F)ccc21` ?
[reply] 27.8

[ask] Quick one: growth for `CC/C=C\CCC/C=C1/C(=O)C=C[C@@H]1C/C=C\CCCC(=O)OC` ?
[reply] 54.1

[ask] Quick one: growth for `Ic1ccccc1I` ?
[reply] 105

[ask] Quick one: growth for `CN(C)CCN1C(=O)c2cccc3c(/C=C/CN4C(=O)c5cccc6cccc(c56)C4=O)ccc(c23)C1=O` ?
[reply] 91

[ask] Quick one: growth for `Fc1ccc2[nH]cc(-c3nc(-c4c[nH]c5ccncc45)cs3)c2c1` ?
[reply] -17.4

[ask] Quick one: growth for `CN1CCN(C(=O)[C@@]2(C)CC[C@]3(C)CC[C@]4(C)C(=CC[C@@H]5[C@@]6(C)CCC(=O)NC(C)(C)[C@@H]6CC[C@]54C)[C@@H]3C2)CC1` ?
[reply] 42.5

[ask] Quick one: growth for `CCNc1ccc(-c2nc3ccccc3n3cccc23)cc1` ?
[reply] 57

[ask] Quick one: growth for `Cn1c(=O)c2[nH]c(SCC(=O)Nc3ccc(C(=O)/C=C/c4ccccc4Cl)cc3)nc2n(C)c1=O` ?
[reply] 98.1

[ask] Quick one: growth for `NC1=Nc2cc(OCCCCN3Cc4ccccc4C3)c(OCC3CC3)cc2C12CCCC2` ?
[reply] 1.68

[ask] Quick one: growth for `O=C(CCCCCCN1CC(=O)N2[C@H](c3ccc(Cl)cc3)c3[nH]c4ccccc4c3C[C@@H]2C1=O)NO` ?
[reply] 65.2

[ask] Quick one: growth for `COc1cccc(CNc2c3ccccc3nc3ccccc23)c1` ?
[reply] 35.7

[ask] Quick one: growth for `COC(=O)c1c2c(c(C)[n+]([O-])c1C)C(=O)C(NCc1ccc(OC)cc1)=CC2=O` ?
[reply] 48.5

[ask] Quick one: growth for `CC(C)(C)n1cc(-c2ccnc(NCCCNS(=O)(=O)c3cccc4ccccc34)c2)c(-c2cccc(F)c2)n1` ?
[reply] 94.3
